Molecular target: T1, human gamma common chain expressed on CHO cells (human, UniProt P31785 23-369)
T1 construct: whole, on cells; Control protein; also called human IL-2R-γ common subunit; human gamma (γ) common chain
T1 sequence (looked up): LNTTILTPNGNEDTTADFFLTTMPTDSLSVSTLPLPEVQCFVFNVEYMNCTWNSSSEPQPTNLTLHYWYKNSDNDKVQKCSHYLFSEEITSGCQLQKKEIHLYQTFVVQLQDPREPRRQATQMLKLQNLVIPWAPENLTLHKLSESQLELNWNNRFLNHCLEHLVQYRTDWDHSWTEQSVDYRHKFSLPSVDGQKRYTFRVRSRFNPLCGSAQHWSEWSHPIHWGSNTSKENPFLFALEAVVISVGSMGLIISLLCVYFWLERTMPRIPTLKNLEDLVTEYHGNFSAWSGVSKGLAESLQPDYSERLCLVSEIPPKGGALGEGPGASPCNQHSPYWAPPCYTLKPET
Assay: cell ELISA on transfected CHO cells, 13 nM IgG
Experimental: A subset of binding proteins was tested for binding to rat, cynomolgus monkey, human IL-21R, or human IL-2R-γ common subunit expressed transiently on the surfaces of CHO-PA-Dukx cells. Cells were transfected 48 hr prior to the assay. […] Cells were incubated with 100 μl TMB until the color reaction reached saturation, stopped with 100 μl of 0.18 M H₂SO₄, and read at A450 on a Perkin Elmer ENVISION™ plate reader.

{"columns": ["BINDER", "A450 at 13 nM Ab in cell ELISA / A450"],
 "data": [
  ["AbS (antibody, human IgG1, V domains shown, Human IgG1 triple-mutant (L234A, L235A, G237A); Framework limits derived; also called VHP/VL6; VHPTM/VL6) VH: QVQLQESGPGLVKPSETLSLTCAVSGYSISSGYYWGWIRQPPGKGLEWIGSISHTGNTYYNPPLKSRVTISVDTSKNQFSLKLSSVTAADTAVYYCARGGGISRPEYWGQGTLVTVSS VL: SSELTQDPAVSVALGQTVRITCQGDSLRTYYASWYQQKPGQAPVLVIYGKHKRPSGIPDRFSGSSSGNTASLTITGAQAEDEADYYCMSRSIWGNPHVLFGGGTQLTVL", 0.118]
]}

// data source = patent US20090298167A1
